biological target: Human GLP-1 receptor (Homo sapiens, UniProt P43220); construct: The full-length cDNA was cloned in pcDNA3.1(+); expressed in transfected cells; assay: In vitro Human GLP-1 R agonist activity (cyclic AMP determination) in CHO/human GLP1R cells; type: cell-based; conditions: 100 nM test compound
Sequence (P43220 24-463): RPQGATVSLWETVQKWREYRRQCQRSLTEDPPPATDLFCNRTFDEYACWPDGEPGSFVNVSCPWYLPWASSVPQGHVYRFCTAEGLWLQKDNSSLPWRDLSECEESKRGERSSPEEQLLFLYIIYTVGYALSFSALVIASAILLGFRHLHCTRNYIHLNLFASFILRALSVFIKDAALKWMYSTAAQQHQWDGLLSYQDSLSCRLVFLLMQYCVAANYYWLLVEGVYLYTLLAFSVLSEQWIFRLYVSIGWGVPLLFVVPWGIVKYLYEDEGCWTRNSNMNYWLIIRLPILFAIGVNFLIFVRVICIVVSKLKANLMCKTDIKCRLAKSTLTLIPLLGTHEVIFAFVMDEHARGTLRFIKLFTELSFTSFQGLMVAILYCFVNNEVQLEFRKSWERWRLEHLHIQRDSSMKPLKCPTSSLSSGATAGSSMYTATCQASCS
reported metric: Human GLP-1 R activity (cAMP release), % activity with respect to control (%)

{"columns": ["compound", "recorded value"],
 "data": [
  ["CCc1cc(OC)ccc1-c1ccc(CC(NC(=O)[C@H](CC(=O)O)NC(=O)[C@H](CO)NC(=O)[C@@H](NC(=O)C(C)(Cc2ccccc2F)NC(=O)[C@@H](NC(=O)CNC(=O)C(CCC#N)NC(=O)C(C)(C)NC(=O)[C@@H](N)Cc2c[nH]cn2)[C@H](C)O)[C@H](C)O)C(=S)NC(CCCc2ccccc2)C(N)=O)cc1 (single isomer, unassigned)", 99],
  ["CCc1cc(OC)ccc1-c1ccc(CC(NC(=O)[C@H](CC(=O)O)NC(=O)[C@H](CO)NC(=O)[C@@H](NC(=O)C(C)(Cc2ccccc2F)NC(=O)[C@@H](NC(=O)CNC(=O)[C@H](CC(C(F)(F)F)C(F)(F)F)NC(=O)C(C)(C)NC(=O)[C@H](Cc2c[nH]cn2)NC(C)=O)[C@@H](C)O)[C@@H](C)O)C(=O)NC(CCCc2ccccc2)C(N)=O)cc1 (single isomer, unassigned)", 90],
  ["CCc1cc(OC)ccc1-c1ccc(CC(NC(=O)[C@H](CC(=O)O)NC(=O)[C@H](CO)NC(=O)[C@@H](NC(=O)C(C)(Cc2ccccc2F)NC(=O)[C@@H](NC(=O)CNC(=O)C(CCC#N)NC(=O)C(C)(C)NC(=O)[C@@H](N)Cc2c[nH]cn2)[C@H](C)O)[C@@H](C)O)C(=O)NC(CCCc2ccccc2F)C(N)=O)cc1 (single isomer, unassigned)", 89]
]}
